Just for reference, patent US20230233569A1 is where these values come from.

Measured pIC50, listed per entry.
target: KRAS WT (Homo sapiens, UniProt P01116+P62937); assay: Ras-Raf disruption / FRET / MOA assay (BRAF RBD); format: biochemical; conditions: Ras-Raf disruption, with Cyclophilin A; read-out: KRAS WT FRET data IC50
Sequence (P01116 1-169 isoform P01116-2 limits assumed): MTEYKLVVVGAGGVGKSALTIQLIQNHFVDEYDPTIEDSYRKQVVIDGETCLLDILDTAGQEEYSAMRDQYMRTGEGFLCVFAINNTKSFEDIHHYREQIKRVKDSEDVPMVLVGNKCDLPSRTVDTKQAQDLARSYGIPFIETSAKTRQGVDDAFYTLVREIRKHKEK
Sequence (P62937 whole entry): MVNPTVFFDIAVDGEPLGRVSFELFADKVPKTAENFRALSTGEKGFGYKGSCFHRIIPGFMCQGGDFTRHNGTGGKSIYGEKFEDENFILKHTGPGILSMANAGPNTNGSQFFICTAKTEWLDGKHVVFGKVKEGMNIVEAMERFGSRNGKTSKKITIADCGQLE
pIC50: −log10 of the molar value.
Measure: pIC50

>>> assay_result("CCn1c(-c2cccnc2[C@H](C)OC)c2c3cc(ccc31)-c1csc(n1)C[C@H](NC(=O)[C@H](C(C)C)N(C)C(=O)N1CCN(C(=O)[C@@H]3CN3)[C@@H](C)C1)C(=O)N1CCC[C@H](N1)C(=O)OCC(C)(C)C2 [Example 298]")
"7.00 to 8.00"
>>> assay_result("CCn1c(-c2cccnc2[C@H](C)OC)c2c3cc(ccc31)-c1cc(O)cc(c1)C[C@H](NC(=O)[C@H](C(C)C)N(C)C(=O)[C@@H]1CCN(C(=O)[C@@H]3CN3)C1)C(=O)N1CCC[C@H](N1)C(=O)OCC(C)(C)C2 [Example 172]")
"7.00 to 8.00"
>>> assay_result("CCn1c(-c2cccnc2[C@H](C)OC)c2c3cc(ccc31)-c1csc(n1)C[C@H](NC(=O)[C@H](C(C)C)N(C)C(=O)N1CCC[C@H](N(C)C(=O)[C@@H]3CN3)C1)C(=O)N1CCC[C@H](N1)C(=O)OCC(C)(C)C2 (atropisomer, axis not shown) [Example 292]")
"6.00 to 7.00"
>>> assay_result("CCn1c(-c2cccnc2[C@H](C)OC)c2c3cc(ccc31)-c1csc(n1)C[C@H](NC(=O)[C@H](C(C)C)N(C)C(=O)N1CCN(C(=O)[C@H]3CN3)[C@@H](C)C1)C(=O)N1CCC[C@H](N1)C(=O)OCC(C)(C)C2 [Example 297]")
"7.00 to 8.00"
>>> assay_result("CCn1c(-c2cccnc2[C@H](C)OC)c2c3cc(ccc31)-c1csc(n1)C[C@H](NC(=O)[C@H](C(C)C)N(C)C(=O)N(C)CCN(C)C(=O)[C@H]1CN1)C(=O)N1CCC[C@H](N1)C(=O)OCC(C)(C)C2 (atropisomer, axis not shown) [Example 216]")
"6.00 to 7.00"
>>> assay_result("CCn1c(-c2cccnc2[C@H](C)OC)c2c3cc(ccc31)-c1csc(n1)C[C@H](NC(=O)[C@H](C(C)C)N(C)C(=O)N1CCN(C(=O)[C@H]3CN3)CC1)C(=O)N1CCC[C@H](N1)C(=O)OCC(C)(C)C2 [Example 169]")
"7.00 to 8.00"
>>> assay_result("CCn1c(-c2cccnc2[C@H](C)OC)c2c3cc(ccc31)-c1cc(O)cc(c1)C[C@H](NC(=O)[C@H](C(C)C)N(C)C(=O)C1CCN(C(=O)[C@@H]3CN3)CC1)C(=O)N1CCC[C@H](N1)C(=O)OCC(C)(C)C2 [Example 89]")
"7.00 to 8.00"
>>> assay_result("CCn1c(-c2cccnc2[C@H](C)OC)c2c3cc(ccc31)-c1cc(O)cc(c1)C[C@H](NC(=O)[C@H](C(C)C)N1CC[C@]3(CCN(C(=O)[C@@H]4N[C@@H]4C4CC4)C3)C1=O)C(=O)N1CCC[C@H](N1)C(=O)OCC(C)(C)C2 [Example 305]")
"7.00 to 8.00"
